# Test system: HCT116 FOP control reporter cell line
# procedure.text: HCT116 FOPFlash control reporter assay (FOP control vector, non-functional TCF elements)
# Format: cell-based
# setup.conditions: Homo sapiens, HCT-116, 36 h, HCT116 FOP control reporter cells, 36 hours incubation, luciferase expression
attribute.measured: IC50

Worked cases, answers included:
- compound: "CN1CCN(CC(=O)Nc2cc(C(=O)Nc3nnc(-c4ccccc4)s3)ccc2OC(F)(F)F)CC1"
  target.system: "HCT116 FOP control reporter cell line"
  test.value: "28 µM"
- compound: "COc1ccc(C(=O)Nc2ccc(-c3ccccc3F)nc2)cc1NC(=O)CN1C[C@@H]2C[C@H]1CO2"
  target.system: "HCT116 FOP control reporter cell line"
  test.value: "≥ 50 µM"
- compound: "O=C(Nc1nnc(-c2ccccc2)s1)c1ccc(Cl)c(NC(=O)C2(N3CCN(C4CC4)CC3)CC2)c1"
  target.system: "HCT116 FOP control reporter cell line"
  test.value: "≥ 50 µM"
- compound: "COCc1ccc(C(=O)Nc2nnc(-c3ccccc3)s2)cc1NC(=O)C1(N2CCN(C)CC2)CC1"
  target.system: "HCT116 FOP control reporter cell line"
  test.value: "26.5 µM"
- compound: "O=C(Cn1cccn1)Nc1cc(C(=O)Nc2ccc(-c3ccccc3F)nc2)ccc1OC1CC1"
  target.system: "HCT116 FOP control reporter cell line"
  test.value: "≥ 50 µM"
- compound: "CC1CN(CC(=O)Nc2cc(C(=O)Nc3ccc(-c4ccccc4F)nc3)ccc2OC(F)(F)F)CCN1C (centres unmarked)"
  target.system: "HCT116 FOP control reporter cell line"
  test.value: "20 µM"
- compound: "CN1CCN(CC(=O)Nc2cc(C(=O)Nc3nnc(-c4ccccc4)s3)ccc2Cl)CC1"
  target.system: "HCT116 FOP control reporter cell line"
  test.value: "≥ 50 µM"
- compound: "COCCNC(=O)c1ccc(C(=O)Nc2nnc(-c3ccccc3)s2)cc1NC(=O)CN1CCOCC1"
  target.system: "HCT116 FOP control reporter cell line"
  test.value: "≥ 50 µM"
- compound: "CN1CCCN(CC(=O)Nc2cc(C(=O)Nc3nnc(-c4ccccc4)s3)ccc2OC(F)(F)F)CC1"
  target.system: "HCT116 FOP control reporter cell line"
  test.value: "12 µM"
- compound: "CS(=O)(=O)Cc1ccc(C(=O)Nc2nnc(-c3ccccc3)s2)cc1NC(=O)CN1CCOCC1"
  target.system: "HCT116 FOP control reporter cell line"
  test.value: "≥ 50 µM"

Tell me the measured IC50 of CC(C(=O)Nc1cc(C(=O)Nc2nnc(-c3ccccc3)s2)ccc1C(F)(F)F)N1CCOCC1 (centres unmarked) , please. ≥ 50 µM

Tell me the measured IC50 of CN1CCN(CC(=O)Nc2cc(C(=O)Nc3nnc(-c4cccc(C#N)c4)s3)ccc2OC(F)(F)F)CC1 , please. ≥ 50 µM
